So I've got a bunch of molecules here, and I need their GI50 values.
- System: MOLT-4
- test details: NCI tumour cell line growth inhibition, 48 h
The source made the active and inactive calls. Cut-off read from the data, not from the text of the source: active = GI50 up to about 1.1 µM and inactive = higher. Where a SMILES comes first, the peptide text is derived from it.

Query block: GI50 lookup needed for CCOC(=O)C(=O)Nc1ccc(Cl)c(C(F)(F)F)c1 , thanks.
Result block: > 100 µM (inactive)

Query block: Please give the measured GI50 for this molecule: C[C@]12CC[C@H](O)CC1=CC[C@@H]1C2CC[C@]2(C)c3n[nH]nc3CC12 (some centres undefined)
Result block: > 100 µM (inactive)

Query block: What does the data say about its GI50? Entry: C[C@]12CCC(=O)C=C1CC[C@@H]1[C@@H]2CC[C@]2(C)C(=O)[C@H](n3ccnc3)C[C@@H]12
Result block: 35.2 µM (inactive)

Query block: Could you tell me which GI50 is on file for COc1ccc(NC(=O)C(=O)Cc2nc3ccc(C(=O)c4ccccc4)cc3nc2O)c([N+](=O)[O-])c1 ?
Result block: 17.6 µM (inactive)

Query block: # query: GI50 of entry CC(=O)NC(CS)C(=O)NC(CO)C(=O)NC(CO)C(=O)NC(Cc1c[nH]c2ccccc12)C(=O)N1CCCC1C(=O)NC(CO)C(=O)NC(Cc1c[nH]c2ccccc12)C(=O)NC(Cc1c[nH]cn1)C(=O)NC(CO)C(=O)NC(Cc1c[nH]c2ccccc12)C(=O)NCC(=O)NCC(=O)NC(CC(=O)O)C(=O)NC(CCC(N)=O)C(=O)NC(CCCCN)C(=O)NC(Cc1ccccc1)C(=O)NC(CCCNC(=N)N)C(=O)NC(CCCCN)C(N)=O (centres undefined) (Ac-CSSWPSWHSWGGDQKFRK-NH2; configuration not given here)
Result block: > 25 µM (inactive)

Query block: Please give the measured GI50 for this molecule: Cc1cc(S(=O)(=O)Nc2cc(N)n[nH]2)c(SCc2nc(N)nc(N(C)C)n2)cc1Cl
Result block: > 10 µM (inactive)

Query block: For O=C(CCl)Nc1ccc(C(=O)N/N=C/c2ccc(Cl)cc2)cc1 , what is its reported GI50?
Result block: 1.9 µM (inactive)

Query block: Fill in the blank: the reported GI50 of CC1=CC(=O)CC(C)(C)C1/C=C/C(C)=C/C=C/C(C)=C/C=C/C=C(C)/C=C/C=C(C)/C=C/C1C(C)=CC(=O)CC1(C)C (centres undefined) is ____.
Result block: 50.1 µM (inactive)

Query block: Which GI50 value is on record for Cc1cc2c(cc1CO)N1Cc3cc(C)c(CO)cc3N(C2)C1 ?
Result block: > 100 µM (inactive)

Query block: GET /values?readout=GI50&item= CC(C)C(Sc1nc(-c2ccccc2)c(-c2ccccc2)[nH]1)C(=O)N/N=C/c1ccc([N+](=O)[O-])cc1 (centres undefined)
Result block: 1.93 µM (inactive)

Query block: Would you kindly share the measured GI50 for Cc1ccc(O)c(-c2cc(-c3ccccc3)nc(/N=C\c3ccccc3)n2)c1 ?
Result block: 18.2 µM (inactive)

Query block: Look up GI50 for this molecule: O=C1/C(=C/c2cccc([N+](=O)[O-])c2)N=C(c2ccccc2)N1c1ccc2c(c1)Sc1cc(N3C(=O)/C(=C/c4cccc([N+](=O)[O-])c4)N=C3c3ccccc3)ccc1N2
Result block: 36.9 µM (inactive)

Query block: Need GI50, item O=S(O)CCCCCSSc1ccccc1
Result block: 8.13 µM (inactive)

Query block: Could you tell me which GI50 is on file for CC1(C)COC(c2cccc(C(O)c3ccc(Cl)cc3)c2)=N1 (centres undefined) ?
Result block: 12.1 µM (inactive)
